assay: human hepatoma cell viability loss – ATP luminescence, cytotoxicity control for P. falciparum antimalarial project, primary screen (AID 2303); conditions: HepG2 viability, 24-48 h, at 10 µM;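 further: 0% = DMSO wells and 100% = digitonin-killed cells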
Activity calls are given as the source filed them.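 How the source made its calls: active means inhibition above 50%; inactive means the rest.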
Reply using exactly one outcome from True = active, False = inactive

GET /call?item= Cc1cc(-c2cccc(CNC3CCCC3)c2)ccc1S(=O)(=O)NCCN1CCCC1 returns the recorded outcome of this test.
False

Hi, sorry to bother you, what did the test record for COc1cccc2c(NN=Cc3ccc([N+](=O)[O-])cc3)ccnc12 ?
False

Test call for this compound, please: CC(=NNC(=S)NCCc1ccccc1)c1ccccn1
True

Recorded test outcome, item c1cc(C2=N[C@H]3CCCC[C@@H]3N2)ccc1OCCCCCOc1ccc(C2=N[C@@H]3CCCC[C@H]3N2)cc1
True

Call for entry CN(CCO)Cc1ccc(-c2ccc(NS(=O)(=O)c3cccc4cccnc34)cc2)cc1 :
False

GET /call?item= CN1CCCN(Cc2ccc(-c3cccc(NC(=O)c4cccc(C#N)c4)c3)cc2)CC1 returns the recorded outcome of this test.
False

Given Oc1ccc(CN2CC[C@@H](N3CCN(CCc4ccccc4)CC3)[C@H](O)C2)cc1Cl , state the outcome it received in this test.
False

// param item: COc1ccc(CCN(C)CCCCNC(=O)c2ccc(NC(=O)c3ccc(Cl)cc3)cc2)c(OC)c1 ; yields the recorded call
False

I would be grateful if you could indicate the recorded call for COc1ccc(C(=O)[C@H]2C[C@@H]2CN(C)CCC(O)c2ccc(Cl)c(Cl)c2)cc1 (some centres undefined) .
False

* * *

Record form. Attribute: growth inhibition. Fill in for each entry.
assay: antimalarial activity against Dd2 strain (AID 2302);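 further: 0% = DMSO untreated growth and 100% = chloroquine plus artemisinin killed control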; settings: P. falciparum Dd2 in RBCs, LDH growth readout, 72 h; at 2 µM; hits give high values
Numeric only. Scale: %

What value of growth inhibition has been reported for the following molecule? Cc1ccc(C=C2SC(=Nc3ccccc3)NC2=O)c(C)c1
90

Fill in the blank: the reported growth inhibition of O=c1sn(-c2csc3ccccc23)c2ccccc12 is ____.
54

Fill in the blank: the reported growth inhibition of COc1cccc(C2CCCN(CCCCNC(=O)c3ccc(NC(=O)c4ccc(Cl)cc4)cc3)C2)c1 (stereo unspecified) is ____.
6

Query: growth inhibition; subject: Cc1nnc2c(NC(=O)NC3CCCC3)cc3ccc(-c4cccc(CN(C)C)c4)cc3n12
25

Fill in: growth inhibition of CCOC(=O)C1=C(C)NC2=C(C(=O)CC(C)(C)C2)C1c1ccc(Br)cc1 (stereo unspecified) is ___
66

Entry Cc1c(C2CCN(CCCCNC(=O)c3ccc(-c4ccc(C#N)cc4)cc3)CC2)c2ccccc2n1CCO : reported growth inhibition = ?
99

Item c1cncc(CCNCc2ccc(-c3ccc(CNC4Cc5ccccc5C4)cc3)cc2)c1 has what recorded growth inhibition?
29

// returns reported growth inhibition for input CC(=O)Nc1ccc2[nH]cc(C3CCN(CCC4CCN(C(=O)/C=C/c5ccc(Cl)c(Cl)c5)CC4)CC3)c2c1
7

Any idea what growth inhibition was measured for FC(F)(F)c1cccc(Nc2nc(-n3ccnc3)nc(-n3ccnc3)n2)c1 ?
9

# input molecule: Cc1cc2ccc(/C=C/C(=O)NC3CCC(CCN4CCc5ccc(C#N)cc5CC4)CC3)cc2[nH]1 (stereo unspecified) ; wanted: its growth inhibition
56

Give its growth inhibition value. Item: Clc1ccc(Cn2nc(Br)nc2Br)c(Cl)c1
96

Name the recorded growth inhibition for COc1ccccc1N1CCN(Cc2c(O)ccc3cc(Br)ccc23)CC1 .
75

Reported growth inhibition for COc1ccc2ccccc2c1CON1C(N)=NC(N)=NC1(C)C : what is it?
5

# input molecule: Cc1cc(OCc2ccccc2)c(OCc2ccccc2)cc1C(O)CN(C)Cc1ccccc1 (stereo unspecified) ; wanted: its growth inhibition
87

Reported growth inhibition for COc1ccc(O)cc1Cc1cnc2nc(N)nc(N)c2c1C : what is it?
97

Fill in the blank: the reported growth inhibition of Cc1cccc(N2C(N)=NC(N)=NC2(C)C)c1C is ____.
-2

Requested field: growth inhibition. Item: NS(=O)(=O)c1cccc(-c2ccc3nccc(-c4cccc(S(N)(=O)=O)c4)c3c2)c1
99

Entry C=CCc1cc(SC)ccc1Oc1ccc(N)cc1 : reported growth inhibition = ?
2

If you can, please state the reported growth inhibition value of Cn1c2ccccc2c2c3ccccc3c(CNC(CO)(CO)CO)cc21 .
78

Using the record for Fc1ccc2nc(Nc3nc(-c4ccccn4)cs3)sc2c1 , report its growth inhibition.
100

Entry under review: CCOC(=O)COc1cccc(CNc2ccc3nc(N)nc(N)c3c2)c1 . Reported growth inhibition?
99

* * *

experiment: human hepatoma cell viability loss – ATP luminescence, cytotoxicity control for P. falciparum antimalarial project, primary screen (AID 2303); settings: HepG2 viability, 24-48 h, at 10 µM, hits give high values;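 further: 0% = DMSO wells and 100% = digitonin-killed cells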
inhibition under 20% gets MET, anything at or over 20% gets NOT MET.

Bench note: check whether CC[C@H](C)CNC(=O)c1ccnc(-c2cccc(CN3CCC(N4CCCC4)CC3)c2)c1 shows inhibition below 20%
MET

Does the reported inhibition of COc1ccc(-c2ccc(NC(=O)c3ccc(Cl)cc3)cc2)cc1CN(C)CCN(C)C stay below 20%?
NOT MET

Given CC(C)NCc1ccc(-c2ccc(NC(=O)c3cccc(Cl)c3)cc2)cc1 , is recorded inhibition strictly lower than 20%?
NOT MET

I'd appreciate it if you could check whether CC(C)N(CCOc1ccc2c(c1)N(C(=O)Nc1cc(Br)cc(C(F)(F)F)c1)CC2)C(C)C has inhibition smaller than 20%.
MET

Would you kindly verify if inhibition of OCC1CCN(Cc2ccc(-c3cccc(-c4nc5ccc(C(F)(F)F)cc5[nH]4)c3)cc2)CC1 is strictly less than 20%?
MET

* * *

molecular target: L-lactate dehydrogenase (Plasmodium falciparum (isolate CDC / Honduras)) (UniProt Q27743); assay: PfLDH activity inhibition – cell lysate, 3D7 strain, counter-screen for P. falciparum growth inhibition project (AID 2304);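 further: 0% = vehicle and 100% = reference inhibitor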; conditions: P. falciparum 3D7 crude extract, LDH APAD/NBT absorbance; at 2 µM; hits give high values
Sequence (Q27743 whole entry, looked up): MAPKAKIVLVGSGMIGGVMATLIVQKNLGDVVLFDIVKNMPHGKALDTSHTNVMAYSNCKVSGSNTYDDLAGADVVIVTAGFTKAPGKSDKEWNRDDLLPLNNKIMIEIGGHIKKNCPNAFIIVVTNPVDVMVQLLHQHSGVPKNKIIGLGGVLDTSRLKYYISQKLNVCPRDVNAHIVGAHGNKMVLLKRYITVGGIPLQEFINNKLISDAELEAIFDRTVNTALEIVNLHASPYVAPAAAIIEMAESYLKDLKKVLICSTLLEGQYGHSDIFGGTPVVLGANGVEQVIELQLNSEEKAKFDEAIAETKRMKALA
Experimental endpoint: inhibition (%)
# output: bare number, implied unit %

Requested read-out: inhibition. Entry: O=C(Cn1c(CCc2cccc(F)c2F)nc(=O)c2cccnc21)N(Cc1ccc(-c2ccc(C(F)(F)F)cc2)cc1)C1CCN(C2CCSCC2)CC1
3

Given the entry c1ccc(CNCc2cccc(-c3ccc(-c4nc5ccccc5[nH]4)s3)c2)cc1 , report its measured inhibition.
3

Look at this compound and give its reported inhibition. Cc1[nH]cnc1CSCCNC(N)=NCCCCCCCCN=C(N)NCCSCc1nc[nH]c1C
-10

Given the compound CCCNC(=O)c1cncc(-c2ccc(CNCCCc3ccccc3)cc2)c1 , what is its reported inhibition?
0

Bench note: what inhibition did CCN(CC)c1ccc(-c2nc3ncc(Cl)cc3[nH]2)cc1 show?
-5

Given Cc1ccc2nc(C)cc(NN=Cc3ccccc3F)c2c1 , state its recorded inhibition.
-3

Any idea what its inhibition is? The compound is CS(=O)(=O)c1cccc(-c2cnc(N)c3cc(-c4ccc(F)cc4)ccc23)c1
4

Entry under review: CCOC(=O)c1c(C)noc1Nc1ccc(OC)cc1 . Reported inhibition?
-6

# query: inhibition of entry O=S(=O)(NCCN1CCCC1)c1cccc(-c2ccc(CNCc3ccsc3)cc2)c1
6

So what's the measured inhibition for this one? N#Cc1ccccc1S(=O)(=O)N1CCCC(CNC(=O)[C@H](CC2CCCCC2)NC(=O)c2cc3ccccc3s2)C1 (some centres undefined)
-2

Quick check: inhibition of Cc1ccc(N2CCc3c(-c4cc5cccnc5nc4C)cc(C)nc32)c(Cl)c1 ?
3

For COc1ccc(NC(=O)C2c3ccccc3C(=O)N(C3CCCC3)C2c2cccs2)cc1 (centres undefined) , what is its reported inhibition?
-1

# query: inhibition of entry COc1ccc(-c2cnc3[nH]cc(-c4ccc(CCC(=O)O)cc4)c3c2)cn1
-5

Which inhibition value belongs to CN(CCCNCc1cccc2ccccc12)CCCNCc1cccc2ccccc12 ?
-3

I have this compound here, Cc1ccccc1C1CCN(C2CCC(NC(=O)c3ccc4c(c3)-c3nocc3C(C)O4)CC2)CC1 (centres undefined) , and I need its recorded inhibition.
4

I am curious: what inhibition value has been reported for NC1=NC2(CCCC2)C(c2ccc(Cl)c(Cl)c2)C(N)=N1 (centres undefined) ?
-1

Requested read-out: inhibition. Entry: COc1cc(F)c2ncc(Cl)c(CCN3CCC(NCc4ccc5c(c4)NC(=O)CO5)CC3)c2c1
-2

Item under review: CCCCCN1CCCCC(NS(=O)(=O)c2ccc(C(=O)Nc3ccc(C(F)(F)F)cc3)cc2)C1 (centres undefined) . Reported inhibition?
-2

Query (compound): O=S(=O)(NCCN1CCCC1)c1ccc(-c2cccc(CNC3Cc4ccccc4C3)c2)cc1F ; field requested: inhibition
-1

// lookup inhibition for Nc1nccc2ccc(-c3ccnc(NCc4cccnc4)n3)cc12
-3

Any idea what its inhibition is? The compound is FC(F)(F)c1ccc2nc(-c3cccc(-c4ccc(CNCCN5CCNCC5)cc4)c3)[nH]c2c1
4

Returns the measured inhibition for the input compound. Input: CC(C)CCCC(C)(C)NC[C@@H](O)[C@H](Cc1ccccc1)NC(=O)c1cc(NC(C)C)cc(N2CCCCS2(=O)=O)c1
-1

Which inhibition value is on record for Clc1ccc2c(NN=Cc3cccs3)ccnc2c1 ?
2

Param item = COc1ccc(CCNCCCCCCNCCc2ccc(Cl)cc2)c(Cl)c1OC ; retrieve measured inhibition.
5

May I ask what inhibition has been recorded for CCN(CCCN1CCCCC1)c1cc(C)nc(Nc2ccc(Br)cc2F)n1 ?
-6

Reported inhibition, compound COc1ccc(-c2cnc3[nH]cc(-c4ccc(C(=O)O)c(C)c4)c3c2)cn1 : ____
-5

Please look up its inhibition: CC(C)(C)c1ccc(CNC(=O)c2cc(CNC3CCNCC3)ccc2O)cc1
2

# get_value(readout='inhibition', item= CC[C@H](NC(=O)c1c(CCCN2CCN(c3ccccc3)CC2)c(-c2ccccc2)nc2cc(O)ccc12)c1ccccc1 )
6

Quick check: inhibition of NC(N)=NN=Cc1ccc2c(c1)Cc1ccccc1-2 ?
-2

Requested field: inhibition. Item: c1cc(CNc2ncc(-c3ccsc3)c(-c3nccs3)n2)ccn1
-7

Given CN(C)CCN(Cc1ccccc1-c1ccc(CNCCc2ccccc2)cc1)C(=O)c1ccccc1 , state its recorded inhibition.
-3

Would you mind telling me what inhibition value was observed for O=C(NCc1ccccc1)O[C@@H]1CNCC[C@H]1c1ccc(C(O)Cc2ccccc2)cc1 (some centres undefined) ?
4

Endpoint output: inhibition of CCCCCCCn1c(=N)n(CC(O)c2ccc(Cl)c(Cl)c2)c2ccccc21 (centres undefined) . Value?
2

Consider the compound shown here: O=S(=O)(c1ccc(OCc2ccc(Cl)cc2)cc1)c1cc2c(c(-c3ccc(F)cc3)c1)CCN(CC1CC1)CC2 What is its recorded inhibition?
-5

Entry CCOc1ccc(NC(=O)c2ccc(NCCCN3CC(C)CC(C)C3)c([N+](=O)[O-])c2)cc1 (centres undefined) has what inhibition?
-4

For O=S(=O)(Nc1ccc(CCN2CCCCC2CCN2CCCC2)cc1)c1ccc(-c2ccccc2)cc1 (centres undefined) , what is its reported inhibition?
-1

Entry COCCn1c(SC(C)C(=O)Nc2cc(C(F)(F)F)ccc2Cl)nc2ccccc2c1=O (centres undefined) has what inhibition?
4

Name the recorded inhibition for Cc1c(Cn2ncc(N3C[C@@H](C)N[C@@H](C)C3)c(Cl)c2=O)cccc1NC(=O)Nc1ccc(-c2ccccc2)cc1 .
-6

For CC(=O)NC1=NC(C)(C)N(OCCCOc2ccc(Cl)c(Cl)c2)C(NC(C)=O)=N1 , what is its reported inhibition?
0
